assay: JHH-DIPG-1 glioma cell viability, MIPE5.0 library, CellTiter-Glo luminescence, qHTS (AID 1347067); details: JHH-DIPG-1 glioma viability, CellTiter-Glo ATP luminescence;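 further: cells exposed to compound for 48 hours before readout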
Inconclusive results are not listed. Activity calls are given as the source filed them. Cut-off not given; nearly all actives show AC50 up to about 26 µM.
Labels: 1 (yes) for active, 0 (no) for inactive

compound	class
CC[C@H]1OC(=O)[C@H](C)[C@@H](O[C@H]2C[C@@](C)(OC)[C@@H](O)[C@H](C)O2)[C@H](C)[C@@H](O[C@@H]2O[C@H](C)C[C@H](N(C)C)[C@H]2O)[C@](C)(O)C[C@@H](C)C(=O)[C@H](C)[C@@H](O)[C@]1(C)O	0 (no)
COc1cc2c(c(OC)c1OC)-c1ccc(OC)c(=O)cc1[C@@H](NC(C)=O)CC2	1 (yes)
COc1cc([C@@H]2c3cc4c(cc3[C@H](O)[C@H]3COC(=O)[C@@H]23)OCO4)cc(OC)c1OC	1 (yes)
OC[C@H]1O[C@@H](Oc2cc(O)cc(/C=C/c3ccc(O)cc3)c2)[C@H](O)[C@@H](O)[C@@H]1O	0 (no)
COC(=O)C1=C(C)NC(C)=C(C(=O)OCCN2CCN(C(c3ccccc3)c3ccccc3)CC2)C1c1cccc([N+](=O)[O-])c1 (configuration not stated)	1 (yes)
COC(=O)[C@@H]1CC2=CC(=O)CC[C@]2(C)[C@@]23O[C@@H]2C[C@@]2(C)[C@@H](CC[C@@]24CCC(=O)O4)[C@H]13	0 (no)
CN(C(=O)c1c(O)c2ccccc2n(C)c1=O)c1ccccc1	0 (no)
O=S(=O)(c1cccc2cnccc12)N1CCCNCC1	0 (no)
O=C(NOCC1CC1)c1ccc(F)c(F)c1Nc1ccc(I)cc1Cl	1 (yes)
CCC1=C[C@@H]2CN(C1)Cc1c([nH]c3ccccc13)[C@@](C(=O)OC)(c1cc3c(cc1OC)N(C)[C@H]1[C@@](O)(C(=O)OC)[C@H](OC(C)=O)[C@]4(CC)C=CCN5CC[C@]31[C@@H]54)C2	1 (yes)
NC(=O)c1ncn([C@@H]2O[C@H](CO)[C@@H](O)[C@H]2O)c1N	0 (no)
c1coc(CNc2ncnc3nc[nH]c23)c1	0 (no)
N=c1ccn2c(n1)O[C@H]1[C@H](O)[C@@H](CO)O[C@H]12	0 (no)
Cc1ccccc1C(=O)Nc1ccc(C(=O)N2CCCC(O)c3cc(Cl)ccc32)c(C)c1 (configuration not stated)	0 (no)
CN(C)c1nc(N(C)C)nc(N(C)C)n1	0 (no)
CC1(C)CCC(C)(C)c2cc(NC(=O)c3ccc(C(=O)O)cc3)ccc21	0 (no)
N=C(N)c1ccc2cc(OC(=O)c3ccc(N=C(N)N)cc3)ccc2c1	0 (no)

###

system: Hepatitis C virus NS3 helicase; test: HCV NS3 helicase inhibitors, primary screen, biochemical, fluorescence polarization, LOPAC1280 library (AID 687035); conditions: Purified HCV NS3 helicase, Cy5-dT15 ssDNA binding fluorescence polarization; stronger effect = higher value; concentration not given here
Measured inhibition of individual entries
quantity_kind: inhibition (%)

molecule	reading_unit	measurement
Cc1cc(O)c2c(c1)C(=O)c1cc(O)cc(O)c1C2=O	%	0
CCCn1cnc2c1c(=O)n(CCCCC(C)=O)c(=O)n2C	%	1
CC(C)NCC(O)COc1cccc2[nH]ccc12 (stereo unspecified)	%	-5
COCC(=O)O[C@]1(CCN(C)CCCc2nc3ccccc3[nH]2)CCc2cc(F)ccc2[C@@H]1C(C)C	%	-2
Oc1ccc(O)cc1	%	0
N=c1nc(N2CCCCC2)cc(N)n1O	%	-4
